- System: HaCat
- Method: Cytotoxic Profiling of Annotated Libraries Using Quantitative High-Throughput Screening (AID 1296008); also: % is scaled to controls: 0 for no effect and ±100 for the full control effect; nearly all actives have a fitted effect of over 60% in size
- Assay setup: Five cell lines viability, CellTiter-Glo ATP luminescence, 48-72 h; active compounds read low
Inconclusive results are not listed.
Exercise: for every item that follows, state its recorded max response.
Your answer is read as %, so omit the unit and give the number.

Fill blank: measured max response of the compound CC(=O)SC[C@@H](C)C(=O)N1CCC[C@H]1C(=O)N[C@@H](Cc1ccccc1)C(=O)O is ____.
1.63

Fill blank: measured max response of the compound COc1ccc(-n2nc(C(N)=O)c3c2C(=O)N(c2ccc(N4CCCCC4=O)cc2)CC3)cc1 is ____.
-4.25

Fill blank: measured max response of the compound Cc1cccc(C=NNc2cc(N3CCOCC3)nc(OCCc3ccccn3)n2)c1 is ____.
-6.14

Fill blank: measured max response of the compound COc1cc2ncnc(Nc3ccc(F)c(Cl)c3)c2cc1NC(=O)C=CCN1CCCCC1 is ____.
-96.7

Fill blank: measured max response of the compound CC(C)Nc1cc(C(F)(F)F)cc2nc(NC(=O)c3cccnc3)nn12 is ____.
-1.8

Fill blank: measured max response of the compound Cc1c(C)n(Cc2ccc(-c3ccccc3C(=O)O)cc2)c2ccc(C(=O)N[C@@H](C)c3ccc([N+](=O)[O-])cc3)cc12 is ____.
-4.97

Fill blank: measured max response of the compound CN(C)CC=CC(=O)Nc1cc2c(Nc3ccc(F)c(Cl)c3)ncnc2cc1O[C@H]1CCOC1 is ____.
-151

Fill blank: measured max response of the compound O=c1c2ccccc2nc2n1CCc1c-2[nH]c2ccccc12 is ____.
-7.58

Fill blank: measured max response of the compound CN(C)c1nc(Cc2ccc(NC(=O)c3ccc4ccccc4c3)cc2)nc(Cl)c1CC(=O)O is ____.
3.96

Fill blank: measured max response of the compound CN[C@H]1CCc2cc(OC)c(OC)c(OC)c2-c2ccc(OC)c(=O)cc21 is ____.
-10.1

Fill blank: measured max response of the compound Cc1cnc(Nc2ccc(F)cc2Cl)nc1-c1c[nH]c(C(=O)N[C@H](CO)c2cccc(Cl)c2)c1 is ____.
-129

Fill blank: measured max response of the compound COc1ccc(CC2c3cc(OC)c(OC)cc3CC[N+]2(C)CCC(=O)OCCCCCOC(=O)CC[N+]2(C)CCc3cc(OC)c(OC)cc3C2Cc2ccc(OC)c(OC)c2)cc1OC (stereo not given) is ____.
3.6

Fill blank: measured max response of the compound NC1(Cc2ccc(Cl)cc2)CCN(c2ncnc3[nH]ccc23)CC1 is ____.
-10.8

Fill blank: measured max response of the compound CC(=O)OCCN1C(=O)c2c(C)nc3ccc(S(=O)(=O)N4CCOCC4)cc3c2C1=O is ____.
1.24

Fill blank: measured max response of the compound Cc1cc(Nc2ncnc3ccc(-c4ccc(CNCCS(C)(=O)=O)o4)cc23)ccc1Oc1ccn2ncnc2c1 is ____.
-107

Fill blank: measured max response of the compound CCC1=C[C@@H]2CN(C1)Cc1c([nH]c3ccccc13)[C@@](C(=O)OC)(c1cc3c(cc1OC)N(C)[C@@H]1[C@@](O)(C(=O)OC)[C@H](OC(C)=O)[C@]4(CC)C=CCN5CC[C@]31[C@@H]54)C2 is ____.
-8.6

Fill blank: measured max response of the compound CC1(C)O[C@@H]2C[C@@H]3[C@H]4C[C@@H](F)C5=CC(=O)C=C[C@]5(C)[C@@]4(F)[C@@H](O)C[C@]3(C)[C@]2(C(=O)CO)O1 is ____.
-6.44

Fill blank: measured max response of the compound NCC(=O)Nc1ccc(-n2nc(C(F)(F)F)cc2-c2ccc3c(ccc4ccccc43)c2)cc1 is ____.
-18.9

Fill blank: measured max response of the compound CC(O)C1C(=O)N2C(C(=O)O)=C(SC3CNC(C(=O)N(C)C)C3)C(C)C12 (stereo not given) is ____.
0.187

Fill blank: measured max response of the compound Cn1cc(-c2[nH]c3cc(NC(=O)[C@H](N)C4CCCCC4)cc4c3c2C=NNC4=O)cn1 is ____.
-8.38

Fill blank: measured max response of the compound COc1cc2c(cc1-c1c(C)noc1C)ncc1[nH]c(=O)n([C@H](C)c3ccccn3)c12 is ____.
-12.8

Fill blank: measured max response of the compound CCCn1c(=O)c2[nH]c(-c3cnn(Cc4cccc(C(F)(F)F)c4)c3)nc2n(CC)c1=O is ____.
-0.725

Fill blank: measured max response of the compound C[C@]12CC[C@H](O)CC1=CCC1C2CC[C@]2(C)C(n3cnc4ccccc43)=CCC12 (stereo not given in full) is ____.
2.2

Fill blank: measured max response of the compound COc1ccc2c(c1)CC[C@@H](CN(C)CC(=O)O)[C@H]2c1ccccc1 is ____.
0.39

Fill blank: measured max response of the compound CC1COC2(CCN(c3nc(=O)c4cc(C(F)(F)F)cc([N+](=O)[O-])c4s3)CC2)O1 (stereo not given) is ____.
0.136

----------
- Method: qHTS of pediatric cancer cell lines to identify multiple opportunities for drug repurposing: Primary screen for A673 cells (AID 1347092); also: nearly all actives have a fitted effect of over 45% in size
- Assay setup: A673 Ewing sarcoma viability, CellTiter-Glo ATP luminescence, 48 h; series mostly up to 46 µM
Records with an inconclusive call do not appear. Active and inactive are the calls of the source. Calls come from the whole dose curve; as a rule, active = well fitted cell-killing curve with a large enough effect; inconclusive = small, poorly fitted or top-dose-only effect; inactive = no such curve, though single readings can be large or run the other way.
Choose the fitting class; nothing outside yes (active), no (inactive) is accepted.

Call for entry Cc1cn2cc(C(=O)N(C)CCO)cc(N[C@@H]3CCOc4cccc(C)c43)c2n1 :
no

Call for entry C[C@@H](Oc1cc(-n2cnc3ccc(CN4CCN(C)CC4)cc32)sc1C(N)=O)c1ccccc1C(F)(F)F :
yes

Call for entry CCc1c2c(nc3ccc(O)cc13)-c1cc3c(c(=O)n1C2)COC(=O)[C@]3(O)CC :
yes

Call for entry O=C(NCCS(=O)(=O)c1ccc(C(F)(F)F)cn1)c1ccc(Cl)cc1 :
no

Call for entry CC1COC2(CCN(c3nc(=O)c4cc(C(F)(F)F)cc([N+](=O)[O-])c4s3)CC2)O1 (stereo not drawn) :
no

Call for entry NC(=O)c1cccc2cn(-c3ccc([C@@H]4CCCNC4)cc3)nc12 :
yes

Call for entry CCC1=C[C@@H]2CN(C1)Cc1c([nH]c3ccccc13)[C@@](C(=O)OC)(c1cc3c(cc1OC)N(C)[C@@H]1[C@@](O)(C(=O)OC)[C@H](OC(C)=O)[C@]4(CC)C=CCN5CC[C@]31[C@@H]54)C2 :
yes

Call for entry C[C@@H](Oc1cc(-c2cnn(C3CCNCC3)c2)cnc1N)c1c(Cl)ccc(F)c1Cl :
yes

----------
- Method: NS1 protein of Zika virus - qHTS assay to identify small molecule inhibitors in human HEK 293 cells (AID 1347053); also: nearly all actives have a fitted effect of over 55% in size
- Assay setup: HEK293 ZIKV MR766 infection, NS1 TR-FRET, 24 h; series mostly up to 46.1 µM
Results filed as inconclusive are left out. Calls of active or inactive are those of the source. Calls follow the shape of the dose curve; as a rule, active = well fitted inhibition curve with a large enough effect; inconclusive = small, poorly fitted or top-dose-only effect; inactive = no such curve, though single readings can be large or run the other way.
Choose the fitting class; nothing outside yes = active, no = inactive is accepted.

Call for entry CN(c1ncccc1CNc1nc(Nc2ccc3c(c2)CC(=O)N3)ncc1C(F)(F)F)S(C)(=O)=O :
yes

Call for entry O=C(c1ccc(Nc2nccc(-c3cc4ccccc4s3)n2)cc1)N1CCC(N2CCCC2)CC1 :
yes

Call for entry Cc1ccc(CN2CCNCC2)cc1NC(=O)CNc1ccc(F)c(F)c1 :
no

Call for entry O=C(CCCCCCC(=O)Nc1ccc([C@H]2O[C@@H](CSc3nc(-c4ccccc4)c(-c4ccccc4)o3)C[C@@H](c3ccc(CO)cc3)O2)cc1)NO :
no

Call for entry CC(C)CC(=O)Nc1n[nH]c2c1CN(C(=O)C1CCN(C)CC1)C2(C)C :
yes

Call for entry CC[C@H]1CN2CCc3cc(OC)c(OC)cc3[C@H]2C[C@@H]1C[C@@H]1NCCc2cc(OC)c(OC)cc21 :
yes

Call for entry Cc1cc(Nc2cc(N3CCN(C)CC3)nc(Sc3ccc(NC(=O)C4CC4)cc3)n2)n[nH]1 :
yes

Call for entry C#Cc1cccc(Nc2ncnc3cc(OC)c(OCCCCCCC(=O)NO)cc23)c1 :
no

Call for entry O=C(O)CCCc1c[nH]c2ccccc12 :
no

Call for entry Cc1ccc(-c2ncn(-c3ccc(Nc4nccc(-c5cccc(N6CCOCC6)c5)n4)cc3)n2)cn1 :
yes

Call for entry CC=C1NC(=O)[C@H]2CSSCCC=C[C@H](CC(=O)N[C@H](C(C)C)C(=O)N2)OC(=O)[C@H](C(C)C)NC1=O :
yes

Call for entry Nc1ccc(C(=O)c2cc3c(ccc4ccccc43)[nH]2)cc1 :
yes

Call for entry C=CC(=O)Nc1cccc(Oc2nc(Nc3ccc(N4CCN(C)CC4)cc3OC)ncc2Cl)c1 :
yes

Call for entry Cc1cc(Nc2nc(N[C@@H](C)c3ccc(F)cc3)c(C#N)cc2F)n[nH]1 :
no

Call for entry Cc1cc(Nc2cc(N3CCN(C)CC3)nc(C=Cc3ccccc3)n2)n[nH]1 :
yes

Call for entry CCNC(=O)Nc1ccc2ncc(Nc3ccc(C)cc3)nc2n1 :
no
